pIC50 values recorded for aldose reductase (AR) (Rattus norvegicus, UniProt P07943)
Bear in mind: pIC50 is minus log10 of a mol/L concentration; give just that figure.

Look over these answered cases.
O=C(O)[C@H]1O[C@@H](Oc2c(-c3ccc(O)c(O)c3)oc3cc(O)cc(O)c3c2=O)[C@H](O)[C@@H](O)[C@@H]1O [Miquelianin (7), miquelianin]    5.10
C[C@@H]1O[C@@H](OC[C@H]2O[C@@H](Oc3c(-c4ccc(O)c(O)c4)oc4cc(O)cc(O)c4c3=O)[C@H](O)[C@@H](O)[C@@H]2O)[C@H](O)[C@H](O)[C@H]1O [Rutin (8), rutin]    5.45

Observed pIC50 on aldose reductase (AR) (Rattus norvegicus, UniProt P07943) for `O=C(O)c1ccc(O)c(Nc2cc(C(=O)O)ccc2O)c1` , please. 4.33

###

# system-name: fructose-mediated bovine serum albumin (BSA) glycation (Bos taurus, UniProt P02769)
# Sequence (P02769 25-607): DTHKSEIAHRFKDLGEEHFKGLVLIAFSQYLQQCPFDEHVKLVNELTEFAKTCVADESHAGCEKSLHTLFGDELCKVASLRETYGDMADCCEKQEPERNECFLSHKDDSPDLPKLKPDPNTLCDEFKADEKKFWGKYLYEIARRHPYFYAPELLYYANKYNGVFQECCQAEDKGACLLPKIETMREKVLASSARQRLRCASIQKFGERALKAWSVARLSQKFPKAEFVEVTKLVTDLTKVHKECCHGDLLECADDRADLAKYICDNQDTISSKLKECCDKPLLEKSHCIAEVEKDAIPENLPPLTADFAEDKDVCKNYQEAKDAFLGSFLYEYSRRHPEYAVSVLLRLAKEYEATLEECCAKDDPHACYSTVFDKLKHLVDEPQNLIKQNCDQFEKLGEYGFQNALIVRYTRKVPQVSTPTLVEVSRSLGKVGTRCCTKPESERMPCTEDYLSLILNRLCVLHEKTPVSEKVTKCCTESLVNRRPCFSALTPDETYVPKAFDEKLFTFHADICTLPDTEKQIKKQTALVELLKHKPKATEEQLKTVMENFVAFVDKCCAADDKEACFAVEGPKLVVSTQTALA
# test-description: Antiglycation assay, fructose-mediated BSA glycation model
quantity-kind: pIC50
Scale for pIC50: -log10 of concentration given in mol/L; no unit attached.

Below are worked cases with known answers.
O=C(O)c1ccc(O)c(Nc2cc(C(=O)O)ccc2O)c1    4.22
C[C@@H]1O[C@@H](Oc2c(-c3ccc(O)c(O)c3)oc3cc(O)cc(O)c3c2=O)[C@H](O)[C@H](O)[C@H]1O    4.75
C[C@@H]1O[C@@H](OC[C@H]2O[C@@H](Oc3c(-c4ccc(O)c(O)c4)oc4cc(O)cc(O)c4c3=O)[C@H](O)[C@@H](O)[C@@H]2O)[C@H](O)[C@H](O)[C@H]1O    4.70

Turning now to a further record.
Look at this compound and give its reported pIC50. `O=C(O)[C@H]1O[C@@H](Oc2c(-c3ccc(O)c(O)c3)oc3cc(O)cc(O)c3c2=O)[C@H](O)[C@@H](O)[C@@H]1O` 4.61

###

Reported values of inhibition at 25 µM for individual entries
# system-name: aldose reductase (AR) (Rattus norvegicus)
# Construct: centrifuged at 10,000× g for 30 min at 4 °C (Centrifuge 5417R, Eppendorf, Germany) to obtain AR homogenate (in the supernatant); from tissue; host or cells: eye lenses of Sprague–Dawley rats
# test-description: Aldose reductase (AR) inhibition assay, rat lens homogenate
# Type: biochemical, Sprague–Dawley rats
# measurement-parameters: 25 µM; read-out: AR inhibition activity, inhibition (%)
# Procedure: For the extraction of AR, the rat eye lenses were grounded in a precooled mortar (−70 °C) and extracted using 0.1 M PBS (pH 6.2; about 0.5 mL of PBS per two frozen rat lenses). A 96-well plate-based AR inhibition assay was used in this study, which was modified from a previous method. In principle, the rate of the absorbance decrease of NADPH at 340 nm (OD340 nm) was used for evaluation of the AR inhibitory activity. […]
# output: bare number, implied unit %

As a guide, the following entries are already answered.
O=C(O)c1cc(O)c(O)c(O)c1 [Gallic acid (3), gallic acid]    4.16
O=C(O)C1=C[C@@H](O)[C@@H](O)[C@H](O)C1 [Shikimic acid (2), shikimic acid]    5.86
O=C(O)c1ccc(O)c(Nc2cc(C(=O)O)ccc2O)c1    27.2

Turning now to a further compound:
Field: inhibition at 25 µM (aldose reductase (AR) (Rattus norvegicus)). Entry: C[C@@H]1O[C@@H](OC[C@H]2O[C@@H](Oc3c(-c4ccc(O)c(O)c4)oc4cc(O)cc(O)c4c3=O)[C@H](O)[C@@H](O)[C@@H]2O)[C@H](O)[C@H](O)[C@H]1O [Rutin (8), rutin] 84.5
